For each of the compounds below, state its GI50.
Test system: SNB-75
Experiment: NCI tumour cell line growth inhibition, 48 h
Calls of active or inactive are those of the source. Rule as the data show it: active = GI50 up to about 1.1 µM and inactive = higher.

// below: answered compounds
compound="COc1cc(/C=C2\\NC(=O)C3Cc4c(OC)c(C)c(OC)c(OC)c4C2N3C)c(OC)c(C)c1OC (configuration not stated)" property_measured=GI50 result="> 100 µM (inactive)"
compound="C=C(C)[C@@H]1CC[C@]2(COC(C)=O)CC[C@]3(C)[C@H](CC[C@@H]4[C@@]5(C)CC[C@H](OC(C)=O)C(C)(C)[C@@H]5CC[C@]43C)[C@@H]12 [BETULIN DIACETATE]" property_measured=GI50 result="> 50 µM (inactive)"
compound="O=C1N(c2ccccc2)C2(O)C(=O)c3ccccc3C2(O)N1c1ccccc1 (configuration not stated)" property_measured=GI50 result="> 100 µM (inactive)"

// batch mode: one GI50 value per listed entry
1. O=C(O)CCO/N=C1/C(=C2/C(=O)Nc3ccccc32)Nc2ccccc21
2. COC(=O)CN1Cc2cc(C)cc(c2O)CN(CC(=O)OC)Cc2cc(C)cc(c2O)CN(CC(=O)OC)Cc2cc(C)cc(c2O)CN(CC(=O)OC)Cc2cc(C)cc(c2O)C1
3. Nc1c(C(=O)Nc2ccccc2O)[n+]([O-])c2ccccc2[n+]1[O-]
4. CC1(C)CCC[C@@]2(C)C1C[C@H](O)[C@@]1(C)O[C@@](C)([C@H](O)CO)CCC21 (some centres not stated)

Output:
1. 13.8 µM (inactive)
2. 12.4 µM (inactive)
3. 47.9 µM (inactive)
4. 20.1 µM (inactive)

----------
System: SR
Test: NCI tumour cell line growth inhibition, 48 h
Activity calls are given as the source filed them. Cut-off read from the data, not from the text of the source: active = GI50 up to about 1.1 µM and inactive = higher.
For each of the compounds below, state its GI50.

// below: answered compounds
compound=O=C(Nc1ccccc1)c1cc2c(cc1Cl)Sc1nccn1S2(=O)=O property_measured=GI50 result="14.8 µM (inactive)"
compound=COc1ccc2c(c1)[C@@H](NC(C)=O)CCc1cc(OC)c(OC)c(OC)c1-2 property_measured=GI50 result="0.0834 µM (active)"
compound=CCOC(=O)NN(C(=O)OCC)C(C(=O)c1ccccc1)N(NC(=O)OCC)C(=O)OCC property_measured=GI50 result="> 100 µM (inactive)"
compound=CO[C@]12S[C@@H]3CCCC[C@@]31C(C)(C)C(=O)N2c1ccccc1 property_measured=GI50 result="28.5 µM (inactive)"
compound="O=C(Nc1nnc(-c2ccccc2)o1)C(SC(=S)N1CCOCC1)c1ccccc1 (stereo unspecified)" property_measured=GI50 result="9.75 µM (inactive)"

// batch mode: one GI50 value per listed entry
1. CCC(=O)N(c1ccccc1)C(C)CN1CCC(O)(c2ccccc2)CC1 (stereo unspecified)
2. COc1cc2c(cc1Cc1c(F)cccc1Cl)nc(-c1c(F)cccc1Cl)n2Cc1c(F)cccc1Cl
3. CC(CCC(=O)O)[C@H]1CCC2[C@H]3C(CC(=O)[C@@]21C)[C@@]1(C)CCC(O)C[C@H]1C[C@@H]3O (stereo partly specified)
4. COc1ccc(/N=N/c2c(C)c(C#N)c(=S)n(C3OC(CO)C(O)C(O)C3O)c2-c2ccccc2)cc1 (stereo unspecified)

Output:
1: > 100 µM (inactive); 2: 26.7 µM (inactive); 3: > 100 µM (inactive); 4: 32.1 µM (inactive)

// batch mode: one GI50 value per listed entry
1. CCOC(=O)c1cnc2oc3ccc(O)cc3c2c1-c1ccccc1
2. O=c1[nH]c(Nc2nc3ccccc3[nH]2)nc2c1CCC2
3. O=[N+]([O-])c1ccc2c(c1)c(S(=O)(=O)O)cc1nonc12
4. CCOc1ccc2c(ccc(/C=C/c3cc(C)c4cccnc4c3O)[n+]2C)c1
5. Nc1c(C(=O)Nc2ccccc2O)[n+]([O-])c2ccccc2[n+]1[O-]

Output:
1. 22.6 µM (inactive)
2. 28 µM (inactive)
3. > 100 µM (inactive)
4. 0.153 µM (active)
5. 44.3 µM (inactive)

// batch mode: one GI50 value per listed entry
1. CC(C)(C)OC(=O)NC1CCCCC1NC(=O)C(=O)NC1CCCCC1NC(=O)OC(C)(C)C (stereo unspecified)
2. CC(C(O)c1ccccc1)[N+](=O)[O-] (stereo unspecified)
3. C/C(=N\NC(=S)N(C)C)c1ncc[nH]1
4. O=C(Oc1ccccc1)N1c2ccccc2[C@@]23O[C@]24CCC[C@H]3C#C/C=C\C#C[C@H]14
5. Clc1cc2nn(C3CCCCO3)nc2cc1Cl (stereo unspecified)
6. O=C1Nc2cccc(Cl)c2/C1=C\c1c(-c2ccccc2)nc2n1CCS2
7. C/C(=N\NC(N)=S)c1nc2cccnc2[nH]1

Output:
1. > 100 µM (inactive)
2. 2.68 µM (inactive)
3. 2.81 µM (inactive)
4. 10.4 µM (inactive)
5. > 100 µM (inactive)
6. 19.8 µM (inactive)
7. 45.5 µM (inactive)

// batch mode: one GI50 value per listed entry
1. O=C(CCc1ccc(O)cc1)NCCCNC(=O)CCc1ccc(O)cc1
2. OCC(CCc1c[nH]c2ccccc12)c1c[nH]c2ccccc12 (stereo unspecified)
3. O=c1[nH]c(=O)c2c3n(cc2[nH]1)CCCCC3
4. O=C(O)CCC(NC(=O)c1ccc(Nc2nc3ccccc3nc2-c2cccs2)cc1)C(=O)O (stereo unspecified)
5. COC(=O)c1c(C(=O)OC)c(C(c2ccccc2)c2ccccc2)n(-c2ccccc2)c1Cl
6. COc1ccc2c(c1)CN([C@@H](C)[C@H]1CC[C@H]3[C@@H]4CC[C@H]5C[C@@H](O)CC[C@]5(C)[C@H]4CC[C@]13C)CO2
7. CCCCCCCCCCCCCCCCCCOC[C@H](COP(=O)(O)O[C@H]1[C@H](O)[C@@H](O)[C@H](O)C[C@H]1O)OC
8. COc1ccc(-c2cc(=O)c3c(O)cc(O)cc3o2)cc1OC

Output:
> 100 µM (inactive)
12.1 µM (inactive)
> 100 µM (inactive)
> 100 µM (inactive)
3.17 µM (inactive)
0.321 µM (active)
12.1 µM (inactive)
9.2 µM (inactive)

// batch mode: one GI50 value per listed entry
1. COc1ccc(Cn2c3ccc([N+](=O)[O-])cc3c(=O)n2Cc2ccccn2)cc1
2. COC(=O)c1cc(-c2ccc3ccccc3c2)nc(O)c1C#N
3. CC(C)(C)CC(C)(C)N/C(N)=N/O
4. O=C1CSC(C(/N=N/c2ccc(Cl)cc2)c2nc3ccccc3[nH]2)=N1 (stereo unspecified)
5. CN(C)c1ccc(/N=N\c2cccc3ccoc23)cc1
6. O=C(/C=C1/Nc2ccc([N+](=O)[O-])cc2N/C1=C/C(=O)c1ccc(Cl)cc1)c1ccccc1
7. CCOc1cc(/C=C2\N=C(c3ccccc3)N(c3nc4ccccc4s3)C2=O)ccc1O

Output:
["63 µM (inactive)", "> 100 µM (inactive)", "> 81.5 µM (inactive)", "76.4 µM (inactive)", "23.3 µM (inactive)", "> 100 µM (inactive)", "29.9 µM (inactive)"]

// batch mode: one GI50 value per listed entry
1. S=C1N=C(Cl)/C(=C\c2ccco2)N1
2. COc1cc2c(c(OC(C)=O)c1OC(C)=O)-c1ccc(SC)c(=O)cc1C(NC(C)=O)CC2 (stereo unspecified)
3. Cc1ccc(S(=O)(=O)n2cc(C#N)c(C#N)c2)cc1
4. O=S(=O)(c1ccccc1)N1N=C2c3ccccc3CCC[C@H]2C1c1ccccc1 (stereo partly specified)

Output:
1: > 79.6 µM (inactive); 2: 0.964 µM (active); 3: 24.4 µM (inactive); 4: 95.7 µM (inactive)

GI50 for COc1cc(/C=C2\NC(=O)C3Cc4c(OC)c(C)c(OC)c(OC)c4C2N3C)c(OC)c(C)c1OC (stereo unspecified) is > 100 µM (inactive)

----------
System: TK-10
Experiment: NCI tumour cell line growth inhibition, 48 h
Active and inactive are the calls of the source. Rule as the data show it: active = GI50 up to about 1.1 µM and inactive = higher.
In this exercise, the only acceptable responses are active, inactive

Examples with answers:
compound=CC(C)/C(Cl)=N/OC(NC(=O)Nc1ccc(Cl)c(Cl)c1)(C(F)(F)F)C(F)(F)F label_value=inactive
compound=O=C(O)C1(C(=O)O)CC1 label_value=inactive
compound=O=S1(=O)c2cc(S(=O)(=O)n3ccnc3)ccc2NC2=NCCCN21 label_value=inactive
compound=COc1ccc2c(c1)CN([C@@H](C)[C@H]1CC[C@H]3[C@@H]4CC[C@H]5C[C@@H](O)CC[C@]5(C)[C@H]4CC[C@]13C)CO2 label_value=inactive
compound=CCOC(=O)NN(C(=O)OCC)C(C(=O)c1ccccc1)N(NC(=O)OCC)C(=O)OCC label_value=inactive

Input: Name the outcome recorded for `O=C(O)c1ccc(N2C=[N+]3C(=Nc4ccccc43)C2)cc1` in the assay.
Output: inactive

Input: Name the outcome recorded for `CCOC(=O)CCc1c(C)c2ccc(O)cc2oc1=O` in the assay.
Output: inactive

Input: Name the outcome recorded for `Cc1ccnc2c1ccc1nc3ccccc3n12` in the assay.
Output: inactive

Input: Name the outcome recorded for `O=c1[nH]c(=O)c2c3n(cc2[nH]1)CCCCC3` in the assay.
Output: inactive

Input: Name the outcome recorded for `Cn1c(=O)c2c(n(C)c1=O)n1c(=O)c3ccccc3nc1n2C` in the assay.
Output: inactive
